Each recorded value in this set is attributed to PubChem BioAssay (NCI).

Test system: TK-10 renal
Assay: NCI tumour cell line growth inhibition, 48 h
Catalogue of TGI readings, one per entry.

Recorded results for 8 compounds are shown here.
Exercise: Which TGI value is on record for Cc1cc(C)c(NS(=O)c2cccc([N+](=O)[O-])c2)c(C)c1 (stereo not given) ?
Solution: > 100 µM

Exercise: Which TGI value belongs to CC1(C)S[C@@H]2[C@H](NC(=O)/C=C/c3ccccc3)C(=O)N2[C@H]1C(=O)O ?
Solution: > 100 µM

Exercise: Entry under review: COC(=O)CNC(=O)Nc1cc(N2C(=O)ON3C2C(C)(C)N(O)C3(C)C)ccc1C (stereo not given) . Reported TGI?
Solution: > 100 µM

Exercise: Fill blank: measured TGI of the compound C=C1CO[C@@H]2C[C@@H]1CC/C(C)=C/CC/C(C)=C/CC[C@@]2(C)O is ____.
Solution: 36.2 µM

Exercise: Form field: reported TGI of COC(=O)C1=Cc2c(OC)cc(OC)c(OC)c2[C@H](c2cc(OC)c(OC)cc2OC)C1C(=O)OC (stereo not given in full)
Solution: > 100 µM

Exercise: What measured TGI goes with NC(=O)CCC(NC(=O)C(F)(F)F)C(=O)O (stereo not given) ?
Solution: > 100 µM

Exercise: Can you look up the measured TGI of Cc1cc2c(=O)[nH]nc(N)c2c(N)n1 for me?
Solution: > 100 µM

Exercise: Give the measured TGI of OC(c1ccccc1)c1c(-c2ccccc2)oc(-c2ccccc2)c1C(O)c1ccccc1 (stereo not given) .
Solution: 29 µM

***
Exercise: I have this compound here, O=S(Cc1cc2c(cc1Br)OCO2)c1ccccc1 (stereo not given) , and I need its recorded TGI.
Solution: > 100 µM

Exercise: Sample COc1ccc(C2C3=C(COC3=O)N(CCO)c3cc4c(cc32)OCCO4)cc1OC (stereo not given) — what was its TGI?
Solution: > 36.3 µM
